- SYSTEM_TESTED: RORγ (UniProt P51449)
- Sequence (P51449 1-518): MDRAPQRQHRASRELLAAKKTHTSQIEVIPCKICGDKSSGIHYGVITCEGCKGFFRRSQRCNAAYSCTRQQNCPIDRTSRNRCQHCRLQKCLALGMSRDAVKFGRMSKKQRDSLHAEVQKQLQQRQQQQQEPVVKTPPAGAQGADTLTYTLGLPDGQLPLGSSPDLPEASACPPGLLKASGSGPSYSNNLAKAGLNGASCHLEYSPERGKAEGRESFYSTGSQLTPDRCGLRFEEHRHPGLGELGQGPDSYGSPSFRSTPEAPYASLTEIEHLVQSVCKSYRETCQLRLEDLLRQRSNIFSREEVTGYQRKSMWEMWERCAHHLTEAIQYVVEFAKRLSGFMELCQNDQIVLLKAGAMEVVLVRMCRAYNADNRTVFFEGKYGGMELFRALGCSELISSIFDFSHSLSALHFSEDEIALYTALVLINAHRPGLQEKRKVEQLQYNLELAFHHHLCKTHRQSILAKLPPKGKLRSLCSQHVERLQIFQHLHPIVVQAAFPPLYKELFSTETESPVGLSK
- ASSAY_INFO: RORγ Gal4 Reporter Gene Assay in 293T cells (firefly and renilla luciferase)
- Format: cell-based, human
pIC50 (FF) reference

Reference set (2 entries):
# COMPOUND, SYSTEM_TESTED, READOUT, RESULT
rows = [
    ("Cc1c(C(=O)NCCN2CCOCC2)cc(-c2ccc(S(=O)(=O)NC(C)(C)C)c3ccccc23)n1CC1CCCCC1 [17/269]", "RORγ (UniProt P51449)", "pIC50 (FF)", "6.0/6.9/7.0"),
    ("Cc1c(C(=O)NC(C)C(C)(C)O)cc(-c2cc(C(C)(C)C)cc(C(C)(C)C)c2)n1CC1CCCCC1 (stereo not shown) [1/36]", "RORγ (UniProt P51449)", "pIC50 (FF)", "6.8/6.5/6.6"),
]

Asked: I am curious: what pIC50 (FF) value has been reported for Cc1c(C(=O)NC2CCOCC2)cc(-c2ccc(S(=O)(=O)NC(C)(C)C)c(C(F)F)c2)n1CC1CCCCC1 [17/115] ?
Given back: 6.5/7.9/8.0

Asked: Given the entry Cc1c(C(=O)NCC2(O)CCOCC2)cc(-c2cc(C(C)(C)C)c3c(c2)C2(CCO3)CC2)n1CC1CCCCC1 [1/99] , report its measured pIC50 (FF).
Given back: 6.4/7.1/7.2
